Test system ALK (Homo sapiens), pKi listed for each of the molecules.
pKi: −log10 of the molar value.

molecule: COc1cc(N2CCNCC2)ccc1Nc1cc(Cc2c(F)cccc2Cl)cnc1C(N)=O [Example 42]
endpoint_result: > 7.00
--
molecule: CN1CCN(c2ccc(Nc3cc(-c4ccccc4Cl)cnc3C(N)=O)cc2)CC1 [Example 58]
endpoint_result: 6.00 to 7.00
--
molecule: CN1CCN(c2ccc(Nc3cc(Cc4ccccc4Cl)cnc3C(N)=O)cc2)CC1 [Example 23]
endpoint_result: 6.00 to 7.00
--
molecule: CN1CCN(c2ccc(Nc3cc(-c4cccc(F)c4)cnc3C(N)=O)cc2)CC1 [Example 51]
endpoint_result: < 6.00
--
molecule: CN1CCN(c2ccc(Nc3cc(-c4cccc(Cl)c4)cnc3C(N)=O)cc2)CC1 [Example 52]
endpoint_result: < 6.00

input: Check the records and state pKi for COc1cc(N2CCN(C)CC2)ccc1Nc1cc(C(C)c2cccc(F)c2)cnc1C(N)=O (centres unmarked) [Example 37]
output: 6.00 to 7.00

input: Check the records and state pKi for CC(c1cccc(F)c1)c1cnc(C(N)=O)c(Nc2ccc(N3CCN(C)CC3)cc2)c1 (centres unmarked) [Example 34]
output: 6.00 to 7.00

input: Check the records and state pKi for CN1CCN(c2ccc(Nc3cc(-c4cccc(C(N)=O)c4)cnc3C(N)=O)cc2)CC1 [Example 53]
output: 6.00 to 7.00

input: Check the records and state pKi for CN1CCN(c2ccc(Nc3cc(-c4ccccc4)cnc3C(N)=O)cc2)CC1 [Example 6]
output: 6.00 to 7.00

input: Check the records and state pKi for CN1CCN(c2cccc(Nc3cc(Cc4ccccc4)cnc3C(N)=O)c2)CC1 [Example 4]
output: 6.00 to 7.00

input: Check the records and state pKi for COc1cc(N2CCNCC2)ccc1Nc1cc(Cc2cc(F)ccc2Cl)cnc1C(N)=O [Example 41]
output: > 7.00

input: Check the records and state pKi for Cc1cccc(Cc2cnc(C(N)=O)c(Nc3ccc(N4CCN(C)CC4)cc3)c2)c1 [Example 26]
output: 6.00 to 7.00

input: Check the records and state pKi for COc1cc(N2CCNCC2)ccc1Nc1cc(Cc2c(Cl)cccc2Cl)cnc1C(N)=O [Example 1]
output: > 7.00
